Molecular target: UniProt Q8N6T7
Assay: Sirt6 demyristoylation inhibition assay without pre-incubation
measure: IC50

Incoming: Any idea what its IC50 is? The compound is CC(NC(=O)c1ccccc1/N=C/c1c(O)ccc2ccccc12)c1ccccc1 (stereo not shown)
Outgoing: > 300 µM

###

Target: Sirt6 (Homo sapiens, UniProt Q8N6T7)
Sequence (Q8N6T7 whole entry): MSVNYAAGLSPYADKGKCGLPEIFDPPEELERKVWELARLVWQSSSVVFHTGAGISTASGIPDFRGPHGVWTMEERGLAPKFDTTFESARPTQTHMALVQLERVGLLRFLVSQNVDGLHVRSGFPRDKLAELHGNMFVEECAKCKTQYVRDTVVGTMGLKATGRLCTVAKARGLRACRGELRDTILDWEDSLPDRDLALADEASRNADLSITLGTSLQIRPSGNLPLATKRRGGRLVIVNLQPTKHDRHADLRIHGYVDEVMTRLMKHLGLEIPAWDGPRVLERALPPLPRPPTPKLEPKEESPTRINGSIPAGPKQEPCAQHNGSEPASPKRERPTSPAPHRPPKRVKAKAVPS
Assay: Sirt6 deacetylation inhibition assay
Format: biochemical
Conditions: read-out: IC50 Sirt6 Deacetylation; H3 K9 acetyl peptide substrate; 10 μM Sirt6
pIC50: −log10 of the molar value.
measure: pIC50

Incoming: Any idea what its pIC50 is? The compound is `N#C/C(=C\c1ccc(-c2cc(Cl)ccc2Cl)o1)C(=O)Nc1cccc2ncccc12`
Outgoing: < 3.52
